Values were extracted from patent US20260191907A1.

The binders listed here are annotated with their kon.
system: T1, Recombinant FGFR4 (G&P Biosciences) (human, UniProt P22455 22-369)
T1 construct: Bought protein; the SPR method says only 'Recombinant; also called rFGFR4; extracellular FGFR4
T1 sequence: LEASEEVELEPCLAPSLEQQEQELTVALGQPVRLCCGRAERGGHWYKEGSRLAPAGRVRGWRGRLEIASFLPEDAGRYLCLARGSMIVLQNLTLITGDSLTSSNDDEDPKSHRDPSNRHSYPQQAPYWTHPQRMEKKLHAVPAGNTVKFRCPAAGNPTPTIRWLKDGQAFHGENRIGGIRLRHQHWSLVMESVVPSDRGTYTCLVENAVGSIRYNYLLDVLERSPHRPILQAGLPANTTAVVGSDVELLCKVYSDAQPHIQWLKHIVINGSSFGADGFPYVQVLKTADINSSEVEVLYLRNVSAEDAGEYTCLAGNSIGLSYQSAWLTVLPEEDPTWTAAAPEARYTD
assayText: SPR (BIAcore T200), single cycle kinetics, FGFR4 amine-immobilised, nanobody as analyte, heterogeneous ligand model, component 1 (kon1)
Please respond with the number in M⁻¹ s⁻¹ and leave the unit unwritten.

Examples from the recorded data:
B1 nanobody (anti-FGFR4 sdAb, NaLi-H1 library) (VHH, also called B1 sdAb; not shown: C-terminal Myc/6xHis-tag and an additional cysteine) VHH: EVQLQASGGGFVQPGGSLRLSCAASGYTSRSSAMGWFRQAPGKEREFVSAISDLTGYPYYYADSVKGRFTISRDNSKNTVYLQMNSLRAEDTATYYCAAYQDDKWTYGSQHGKYWGQGTQVTVSS; 1.11e+06
F8 nanobody (anti-FGFR4 sdAb, Gimli library) (VHH, Recombinant nanobody of about 17 kDa; also called F8 sdAb; not shown: C-terminal Myc/6xHis-tag and an additional cysteine) VHH: EVQLVESGGGLVQPGGSLRLSCAASGTGYALDDMGWVRQAPGKGLEWVSAISDDESMADYYADSVKGRFTISRDNSKNTVYLQMNSLRAEDTAVYYCASYKEYKYQSGHHYFAYRGQGTLVTVSS; 54500
B5 nanobody (anti-FGFR4 sdAb, NaLi-H1 library) (VHH, Recombinant nanobody of about 17 kDa; also called B5 sdAb; not shown: C-terminal Myc/6xHis-tag and an additional cysteine) VHH: EVQLQASGGGFVQPGGSLRLSCAASGRTSWLTTMGWFRQAPGKEREFVSAISSFSSKQGYYADSVKGRFTISRDNSKNTVYLQMNSLRAEDTATYYCAYASYPRHQGNGRWKDFVEYWGQGTQVTVSS; 1.84e+06

Please look at the following binder next.
Task item: Look up kon: A8 nanobody (anti-FGFR4 sdAb, NaLi-H1 library) (VHH, also called A8 sdAb; not shown: C-terminal Myc/6xHis-tag and an additional cysteine) VHH: EVQLQASGGGFVQPGGSLRLSCAASGRTYSRDTMGWFRQAPGKEREFVSAISSRHSHTTYYADSVKGRFTISRDNSKNTVYLQMNSLRAEDTATYYCAEWDVFDMHYALPPMWYWGQGTQVTVSS
Reply: 314000
